Taken from patent US20020004493A1.

system: toxic apoE fragments (22 kDa) on embryonic chick sympathetic neurons; experiment: Protection of sympathetic neurons against toxic apoE fragments (vital dye survival count); assay type: cell-based, chicken; details: Gallus gallus, Sympathetic neuron, 10 min pre-incubation with compound, then toxic 22 kDa apoE fragments, overnight, read-out: C50, the concentration required to prevent 50% cell death as compared to control
Rule: EC50 below 20 µM gives criterion met, anything at or above gives criterion not met.

{"columns": ["COMPOUND", "DISCRETE LABEL"],
 "data": [
  ["O=C(O)C1=CC(=C(c2ccc(O)c(C(=O)O)c2)c2ccc(O)c(C(=O)O)c2)C=CC1=O", "criterion met"],
  ["Nc1c(/N=N/c2ccc(-c3ccc(/N=N/c4cc(S(=O)(=O)O)c5ccccc5c4N)cc3)cc2)cc(S(=O)(=O)O)c2ccccc12", "criterion not met"],
  ["O=C1OC(c2ccc(O)c(S(=O)(=O)O)c2)(c2ccc(O)c(S(=O)(=O)O)c2)c2c(Br)c(Br)c(Br)c(Br)c21", "criterion not met"],
  ["Cc1ccc(C(=O)Nc2ccc(S(=O)(=O)O)c3cc(S(=O)(=O)O)cc(S(=O)(=O)O)c23)cc1NC(=O)c1cccc(NC(=O)Nc2cccc(C(=O)Nc3cc(C(=O)Nc4ccc(S(=O)(=O)O)c5cc(S(=O)(=O)O)cc(S(=O)(=O)O)c45)ccc3C)c2)c1 [suramin sodium, reference compound]", "criterion met"]
]}
